Every entry's value here was drawn from ChEMBL document CHEMBL1155520.

Overview of reported MIC across a group of compounds:
Tested on: Streptococcus pneumoniae
Test: Antimicrobial activity against inducible macrolide and constitutive lincosamide, streptogramin-resistant Streptococcus pneumoniae 58 Spain
Assay type: functional
REPORTED METRIC: MIC

CC[C@H]1OC(=O)[C@H](C)[C@@H](O[C@H]2C[C@@](C)(OC)[C@@H](OC(=O)CCNCCNc3cc4c(cc3F)c(=O)c(C(=O)O)cn4C3CC3)[C@H](C)O2)[C@H](C)[C@@H](O[C@@H]2O[C@H](C)C[C@H](N(C)C)[C@H]2O)[C@](C)(OC)C[C@@H](C)NC(=O)[C@H](C)[C@@H](O)[C@]1(C)O : < 0.13 µg/mL
CC[C@H]1OC(=O)[C@H](C)[C@@H](O[C@H]2C[C@@](C)(OC)[C@@H](OC(=O)CCNCCNc3cc4c(cc3F)c(=O)c(C(=O)O)cn4C3CC3)[C@H](C)O2)[C@H](C)[C@@H](O[C@@H]2O[C@H](C)C[C@H](N(C)C)[C@H]2O)[C@](C)(O)C[C@@H](C)NC(=O)[C@H](C)[C@@H](O)[C@]1(C)O : < 0.13 µg/mL
CC[C@H]1OC(=O)[C@H](C)[C@@H](O[C@H]2C[C@@](C)(OC)[C@@H](OC(=O)CCN3CCN(c4cc5c(cc4F)c(=O)ccn5C4CC4)CC3)[C@H](C)O2)[C@H](C)[C@@H](O[C@@H]2O[C@H](C)C[C@H](N(C)C)[C@H]2O)[C@](C)(OC)C[C@@H](C)NC(=O)[C@H](C)[C@@H](O)[C@]1(C)O : 64 µg/mL
CC[C@H]1OC(=O)[C@H](C)[C@@H](O[C@H]2C[C@@](C)(OC)[C@@H](O)[C@H](C)O2)[C@H](C)[C@@H](O[C@@H]2O[C@H](C)C[C@H](N(C)C)[C@H]2O)[C@](C)(O)C[C@@H](C)CN(C)[C@H](C)[C@@H](O)[C@]1(C)O [AZITHROMYCIN] : > 64 µg/mL
CC[C@H]1OC(=O)[C@H](C)[C@@H](O[C@H]2C[C@@](C)(OC)[C@@H](O)[C@H](C)O2)[C@H](C)[C@@H](O[C@@H]2O[C@H](C)C[C@H](N(C)C)[C@H]2O)[C@](C)(OC)C[C@@H](C)NC(=O)[C@H](C)[C@@H](O)[C@]1(C)O : > 64 µg/mL
CC[C@H]1OC(=O)[C@H](C)[C@@H](O[C@H]2C[C@@](C)(OC)[C@@H](OC(=O)CCN3CCN(c4cc5c(cc4F)c(=O)c(C(=O)O)cn5C4CC4)CC3)[C@H](C)O2)[C@H](C)[C@@H](O[C@@H]2O[C@H](C)C[C@H](N(C)C)[C@H]2O)[C@](C)(OC)C[C@@H](C)NC(=O)[C@H](C)[C@@H](O)[C@]1(C)O : 16 µg/mL
CC[C@H]1OC(=O)[C@H](C)[C@@H](O[C@H]2C[C@@](C)(OC)[C@@H](OC(=O)CCN3CCN(c4cc5c(cc4F)c(=O)ccn5C4CC4)CC3)[C@H](C)O2)[C@H](C)[C@@H](O[C@@H]2O[C@H](C)C[C@H](N(C)C)[C@H]2O)[C@](C)(O)C[C@@H](C)NC(=O)[C@H](C)[C@@H](O)[C@]1(C)O : > 32 µg/mL
